# Test system: indomethacin-induced antral damage
# Assay method text: indomethacin-induced gastric antral lesions in the re-fed rat (Method 2)
# Assay type: in vivo
# Measurement setup: inhibition of indomethacin-induced antral ulceration in rat

- Smiles repr: "COC(=O)COc1ccc(C[C@@H](C)NC[C@H](O)c2cccc(Cl)c2)cc1"
  ED50 (mg/kg p.o.): 0.02
- Smiles repr: "C[C@H](Cc1ccc2c(c1)OC(C(=O)O)(C(=O)O)O2)NC[C@H](O)c1cccc(Cl)c1"
  ED50 (mg/kg p.o.): 0.03
- Smiles repr: "COC(=O)COc1ccc(C[C@@H](C)NC[C@@H](O)c2cccc(Cl)c2)cc1"
  ED50 (mg/kg p.o.): 0.5
- Smiles repr: "C[C@H](Cc1ccc(OCC(=O)O)cc1)NC[C@H](O)c1cccc(Cl)c1"
  ED50 (mg/kg p.o.): 0.03
- Smiles repr: "COC(=O)COc1ccc(C[C@H](C)NC[C@H](O)c2cccc(Cl)c2)cc1"
  ED50 (mg/kg p.o.): 0.2
- Smiles repr: "C[C@@H](Cc1ccc(OCC(=O)O)cc1)NC[C@@H](O)c1cccc(Cl)c1"
  ED50 (mg/kg p.o.): 0.8
- Smiles repr: "C[C@H](Cc1ccc2c(c1)OC(C(=O)O)(C(=O)O)O2)NC[C@@H](O)c1cccc(Cl)c1"
  ED50 (mg/kg p.o.): 0.6
- Smiles repr: "C[C@@H](Cc1ccc(OCC(=O)O)cc1)NC[C@H](O)c1cccc(Cl)c1"
  ED50 (mg/kg p.o.): 0.3
